# System: SEM cells
# ASSAY: cell viability relative to DMSO control; higher = less cytotoxic
# CONDITION_LABEL: HPLM + 10% dialyzed FBS; 48 h; 15.4 µM
REPORTED_METRIC: cell viability (%)
Quick reminder: number only, in %, skip the unit.

Look over these answered cases.
COMPOUND	cell viability [%]
N#CC(c1ccnc(NCCc2cccnc2)n1)c1nc2ccccc2s1 (stereo unspecified)	137
CC[C@@H]1[C@@H](C)O[C@@](O)([C@@H](C)[C@H](O)[C@H](C)[C@H]2OC(=O)/C=C/C=C/[C@H](C)[C@@H]([C@@H](C)[C@@H](O)[C@H](C)[C@@]3(O)C[C@@H](O[C@H]4C[C@H](O)[C@H](O)[C@H](C)O4)[C@H](CC)[C@@H](C)O3)OC(=O)/C=C/C=C/[C@@H]2C)C[C@H]1O[C@H]1C[C@H](O)[C@H](O)[C@H](C)O1	29.3
COc1cc2ncn(-c3cc(OCc4ccccc4[S+](C)(=O)[O-])c(C#N)s3)c2cc1OC	95.7

Bench note, SEM cells: entry C=C1C(=O)[C@@]23C(CC[C@@H]1[C@H]2O)[C@@]12CO[C@]3(O)[C@@H](O)[C@@H]1C(C)(C)CC[C@@H]2O (stereo partly specified) , its cell viability = 20.5

Bench note, SEM cells: entry Cc1ccccc1C(OCCN(C)C)c1ccccc1 (stereo unspecified) , its cell viability = 117

Bench note, SEM cells: entry O=[N+]([O-])c1ncc[nH]1 , its cell viability = 79.9

Bench note, SEM cells: entry CC(NC(C)(C)C)C(=O)c1cccc(Cl)c1 (stereo unspecified) , its cell viability = 46

Bench note, SEM cells: entry O=C/1NC(=O)C(=C1C2=CN=C3C=CC=C[N]23)/C4=C[N]5CCN(CC6=C5C4=CC=C6)C(=O)N7CCOCC7 , its cell viability = 9.94

Bench note, SEM cells: entry C[C@@H]1CN(Cc2ccc(F)cc2)[C@@H](C)CN1C(=O)c1cc2c(C(=O)C(=O)N(C)C)cn(C)c2cc1Cl , its cell viability = 98.2

Bench note, SEM cells: entry CC(C)=CCC/C(C)=C/CC/C(C)=C/CSc1ccccc1C(=O)O , its cell viability = 30.3

Bench note, SEM cells: entry CC(=O)OC[C@H]1O[C@@H]([S-])[C@H](OC(C)=O)[C@@H](OC(C)=O)[C@@H]1OC(C)=O.CCP(CC)CC.[Au+] , its cell viability = 6.62

Bench note, SEM cells: entry ClC1=CC=C2N/C3=N/C(=O)CN3CC2=C1Cl , its cell viability = 115

Bench note, SEM cells: entry C=C1C(=O)OC(CCCCCCCC)C1C(=O)O (stereo unspecified) , its cell viability = 125

Bench note, SEM cells: entry COc1cc([C@@H](CC(=O)O)c2ccc(C)c(CN3C[C@@H](C)Oc4ccccc4[S+]3(=O)[O-])c2)cc2nnn(C)c12 , its cell viability = 88.4

Bench note, SEM cells: entry C[C@]12Cc3cn[nH]c3C[C@@H]1CC[C@@H]1[C@@H]2CC[C@@]2(C)[C@H]1CC[C@]2(C)O , its cell viability = 97.4

Bench note, SEM cells: entry CCN(CCO)CCCOc1ccc2c(Nc3cc(CC(=O)Nc4cccc(F)c4)[nH]n3)ncnc2c1 , its cell viability = 20.6

---

# System: P12-Ichikawa
# ASSAY: cell viability relative to DMSO control; higher = less cytotoxic
# CONDITION_LABEL: RPMI 5 mM glucose + 10% dialyzed FBS; 48 h; 5.12 µM
REPORTED_METRIC: cell viability (%)
Quick reminder: number only, in %, skip the unit.

COMPOUND	READING_UNIT	QUANTITATIVE_RESULT
O=C1CCC[C@@H]2[C@H]3CCCN4CCC[C@@H](CN12)[C@@H]34	%	76.9
C=C1C(=O)[C@@]23C(CC[C@@H]1[C@H]2O)[C@@]12CO[C@]3(O)[C@@H](O)[C@@H]1C(C)(C)CC[C@@H]2O (some centres not stated)	%	75.6
CC(C)(S)[C@@H](N)C(=O)O	%	114

Input CC[C@@H]1[C@@H](C)O[C@@](O)([C@@H](C)[C@H](O)[C@H](C)[C@H]2OC(=O)/C=C/C=C/[C@H](C)[C@@H]([C@@H](C)[C@@H](O)[C@H](C)[C@@]3(O)C[C@@H](O[C@H]4C[C@H](O)[C@H](O)[C@H](C)O4)[C@H](CC)[C@@H](C)O3)OC(=O)/C=C/C=C/[C@@H]2C)C[C@H]1O[C@H]1C[C@H](O)[C@H](O)[C@H](C)O1 . Output cell viability: 7.66

Input O=C(NCCCCN1CCOCC1)c1cc2ccccc2o1 . Output cell viability: 116

Input C[C@H](CCC(=O)O)[C@H]1CCC2C3C[C@H](O)[C@@H]4C[C@H](O)CC[C@]4(C)C3CC[C@@]21C (some centres not stated) . Output cell viability: 105

Input CC[S+](=O)([O-])Nc1ccc2c(c1)/C(=C(/Nc1ccc(CN3CCCCC3)cc1)c1ccccc1)C(=O)N2 . Output cell viability: 52

---

# Tested on: NOMO1
# ASSAY: AUC of viability dose-response curve (% viability x log10 dose units); higher = less sensitive
# CONDITION_LABEL: RPMI 5 mM glucose + 10% FBS; 48 h
This section presents molecules with their documented AUC of viability dose-response curve values.

MOLECULE	AUC of viability dose-response curve
O=C(CS(=O)Cc1ccco1)NC/C=C\COc1cc(CN2CCCCC2)ccn1 (centres undefined)	440

Input CC(C)=CCC/C(C)=C/CC/C(C)=C/CC/C(C)=C/CC/C(C)=C/CC/C(C)=C/CC/C(C)=C/CC/C(C)=C/CC/C(C)=C/CO . Output AUC of viability dose-response curve: 462

Input CO[C@@]12[C@H](COC(N)=O)C/3=C(N1C[C@@H]4N[C@H]24)/C(=O)/C(=C(N)\C3=O)C . Output AUC of viability dose-response curve: 453

Input O=C1NCCc2[nH]c(-c3ccncc3)cc21 . Output AUC of viability dose-response curve: 439

Input O=C(/C=C/c1ccc(CN(CCO)CCc2c[nH]c3ccccc23)cc1)NO . Output AUC of viability dose-response curve: 295

Input O=C(CCCCCCC(=O)Nc1cccnc1)NO . Output AUC of viability dose-response curve: 399

Input CC(C)=CCC/C(C)=C/CC/C(C)=C/CSc1ccccc1C(=O)O . Output AUC of viability dose-response curve: 432

Input COc1cc(CCc2cc(NC(=O)c3ccc(N4C[C@@H](C)N[C@@H](C)C4)cc3)n[nH]2)cc(OC)c1 . Output AUC of viability dose-response curve: 466

Input CCC[S+](=O)([O-])Nc1ccc(F)c(C(=O)c2c[nH]c3ncc(Cl)cc23)c1F . Output AUC of viability dose-response curve: 437

---

# Test system: P12-Ichikawa
# ASSAY: cell viability relative to DMSO control; higher = less cytotoxic
# CONDITION_LABEL: HPLM + 10% dialyzed FBS; 48 h; 0.0632 µM
This section presents compounds with their documented cell viability values.
Quick reminder: number only, in %, skip the unit.

Look over these answered cases.
COMPOUND	READING_UNIT	cell viability
N#C/C(=C\c1ccc(O)c(O)c1)C(=O)NCc1ccccc1	%	104
O=C(CC12CC3CC(CC(C3)C1)C2)Nc1cccc2nc(NCCNCCO)ccc12	%	88.1
O=[N+]([O-])c1ncc[nH]1	%	97
CCOc1cc2ncc(C#N)c(Nc3ccc(OCc4ccccn4)c(Cl)c3)c2cc1NC(=O)/C=C/CN(C)C	%	117
Cc1nn(C)c(COc2ccc(N3CCN([S+](=O)([O-])N(C)C)CC3)cc2)c1-c1cccc2c(CCCOc3cccc4ccccc34)c(C(=O)O)n(CCN3CCOCC3)c12	%	103

Bench note, P12-Ichikawa: entry CC1(CN2CCC(n3c(=O)[nH]c4ccccc43)CC2)OCc2ccccc2-n2cccc21 (stereo not given) , its cell viability = 102

Bench note, P12-Ichikawa: entry Cc1cc(OCCC[S+](C)(=O)[O-])cc(C)c1-c1cccc(COc2ccc3c(c2)OC[C@H]3CC(=O)O)c1 , its cell viability = 97

Bench note, P12-Ichikawa: entry CCOC(=O)N1c2ccc(C(F)(F)F)cc2[C@@H](N(Cc2cc(C(F)(F)F)cc(C(F)(F)F)c2)C(=O)OC)C[C@H]1CC , its cell viability = 119

Bench note, P12-Ichikawa: entry CC(C)N(C[C@H]1O[C@@H](n2cnc3c(N)ncnc32)[C@H](O)[C@@H]1O)[C@H]1C[C@@H](CCc2nc3cc(C(C)(C)C)ccc3[nH]2)C1 , its cell viability = 99.2

Bench note, P12-Ichikawa: entry CCOC(=O)[C@@]1(CCCCCCOc2ccc(Cl)cc2)CO1 , its cell viability = 112

Bench note, P12-Ichikawa: entry CCc1cc2c(cc1N1CCC(N3CCOCC3)CC1)C(C)(C)c1[nH]c3cc(C#N)ccc3c1C2=O , its cell viability = 138

Bench note, P12-Ichikawa: entry Clc1cccc(-n2nnnc2NCc2ccccc2Oc2ccccn2)c1Cl , its cell viability = 123

Bench note, P12-Ichikawa: entry Cc1ccc(C(=O)Nc2cccc(C(F)(F)F)c2)cc1-c1ccc2nc(NCCN3CCOCC3)ncc2c1 , its cell viability = 116

Bench note, P12-Ichikawa: entry C[C@H](CCC(=O)O)[C@H]1CCC2C3C[C@H](O)[C@@H]4C[C@H](O)CC[C@]4(C)C3CC[C@@]21C (stereo not given in full) , its cell viability = 126

Bench note, P12-Ichikawa: entry C[C@@H]1CCN(C(=O)CC#N)C[C@@H]1N(C)c1ncnc2[nH]ccc12 , its cell viability = 86.7
